Every entry's value here was drawn from patent US11254668B2.

target: JAK1 (Homo sapiens (Human), UniProt P23458); assay: JAK Caliper Enzyme Assay at 1 mM ATP, JAK1; type: biochemical
Sequence (P23458 875-1153): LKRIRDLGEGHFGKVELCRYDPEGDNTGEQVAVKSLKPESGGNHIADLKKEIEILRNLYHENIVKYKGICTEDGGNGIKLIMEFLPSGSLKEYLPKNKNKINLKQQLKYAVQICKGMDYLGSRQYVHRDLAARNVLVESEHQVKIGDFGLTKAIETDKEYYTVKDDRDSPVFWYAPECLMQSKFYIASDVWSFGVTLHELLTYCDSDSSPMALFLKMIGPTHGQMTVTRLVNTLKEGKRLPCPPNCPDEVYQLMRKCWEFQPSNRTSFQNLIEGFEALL
outcome measure: IC50

CNc1cc(-c2cc3ncccc3c(-c3ccn([C@]4(CC#N)C[C@@H](C#N)C4)n3)n2)nn1C    > 10 µM

Request: Give me measured IC50, please, for this molecule: N#CC[C@]1(n2ccc(-c3nc(-c4ccc(N)c(C(N)=O)n4)cc4ncccc34)n2)C[C@@H](C#N)C1
Response: 0.215 µM

Request: Give me measured IC50, please, for this molecule: CCN1CC(CC#N)(n2ccc(-c3nc(C4=CCOCC4)cc4ncccc34)n2)C1
Response: > 10 µM

Request: Give me measured IC50, please, for this molecule: Cn1nncc1-c1cc(-c2cnn([C@]3(CC#N)C[C@H](C#N)C3)n2)c2cccnc2c1
Response: > 10 µM
